Reference source for all entries: patent EP4682166A1

Reported Fold decrease in affinity values follow for various binders
Target: T1, human NMI (N-myc Interacting protein), recombinant protein (human, UniProt Q13287 1-307, limits assumed)
T1 construct: Gene ID: 9111; also called hNMI; antigen
T1 sequence (looked up): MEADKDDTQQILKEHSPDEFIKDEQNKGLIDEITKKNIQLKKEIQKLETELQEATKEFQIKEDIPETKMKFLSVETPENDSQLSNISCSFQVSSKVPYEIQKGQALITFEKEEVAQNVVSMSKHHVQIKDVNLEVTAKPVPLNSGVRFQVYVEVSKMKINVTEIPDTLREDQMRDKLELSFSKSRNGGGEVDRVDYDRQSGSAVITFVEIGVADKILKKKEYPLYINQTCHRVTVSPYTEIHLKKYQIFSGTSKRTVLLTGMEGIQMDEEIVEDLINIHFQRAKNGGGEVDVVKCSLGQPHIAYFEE
Experiment: ELISA EC50 against parent 98G10

98G10-H-4 (antibody, V domains shown, also called 98G10 Y112S (VH)) VH: QEQLEESGGDLVKPEGSLTLTCTASGFSFSASYWICWVRQAPGKGLEWIACIYGGSSGSAYYASWAKGRFTISKTSSTTVTLQMTSLTAADTATYFCARAGYYNYGSAGDISPSSFKLWGPGTLVTVSS VL: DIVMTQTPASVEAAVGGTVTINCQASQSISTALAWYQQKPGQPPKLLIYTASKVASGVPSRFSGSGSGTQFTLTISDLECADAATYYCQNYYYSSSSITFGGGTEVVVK | 2.65 fold

Kindly consider the entry below.
Challenge: Specify Fold decrease in affinity for 98G10-H-8 (antibody, V domains shown, also called 98G10 W34D, Y112R (VH)) VH: QEQLEESGGDLVKPEGSLTLTCTASGFSFSASYDICWVRQAPGKGLEWIACIYGGSSGSAYYASWAKGRFTISKTSSTTVTLQMTSLTAADTATYFCARAGYYNYGSAGDIRPSSFKLWGPGTLVTVSS VL: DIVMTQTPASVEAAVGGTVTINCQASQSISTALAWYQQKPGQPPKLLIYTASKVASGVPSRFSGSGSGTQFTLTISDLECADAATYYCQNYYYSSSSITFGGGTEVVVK and stop.
Response given: 51.3 fold
